# SYSTEM_TESTED: PI3K γ (p110γ) (Homo sapiens)
# Construct: purchased Upstate / Millipore Corporation
# Sequence (P48736 whole entry): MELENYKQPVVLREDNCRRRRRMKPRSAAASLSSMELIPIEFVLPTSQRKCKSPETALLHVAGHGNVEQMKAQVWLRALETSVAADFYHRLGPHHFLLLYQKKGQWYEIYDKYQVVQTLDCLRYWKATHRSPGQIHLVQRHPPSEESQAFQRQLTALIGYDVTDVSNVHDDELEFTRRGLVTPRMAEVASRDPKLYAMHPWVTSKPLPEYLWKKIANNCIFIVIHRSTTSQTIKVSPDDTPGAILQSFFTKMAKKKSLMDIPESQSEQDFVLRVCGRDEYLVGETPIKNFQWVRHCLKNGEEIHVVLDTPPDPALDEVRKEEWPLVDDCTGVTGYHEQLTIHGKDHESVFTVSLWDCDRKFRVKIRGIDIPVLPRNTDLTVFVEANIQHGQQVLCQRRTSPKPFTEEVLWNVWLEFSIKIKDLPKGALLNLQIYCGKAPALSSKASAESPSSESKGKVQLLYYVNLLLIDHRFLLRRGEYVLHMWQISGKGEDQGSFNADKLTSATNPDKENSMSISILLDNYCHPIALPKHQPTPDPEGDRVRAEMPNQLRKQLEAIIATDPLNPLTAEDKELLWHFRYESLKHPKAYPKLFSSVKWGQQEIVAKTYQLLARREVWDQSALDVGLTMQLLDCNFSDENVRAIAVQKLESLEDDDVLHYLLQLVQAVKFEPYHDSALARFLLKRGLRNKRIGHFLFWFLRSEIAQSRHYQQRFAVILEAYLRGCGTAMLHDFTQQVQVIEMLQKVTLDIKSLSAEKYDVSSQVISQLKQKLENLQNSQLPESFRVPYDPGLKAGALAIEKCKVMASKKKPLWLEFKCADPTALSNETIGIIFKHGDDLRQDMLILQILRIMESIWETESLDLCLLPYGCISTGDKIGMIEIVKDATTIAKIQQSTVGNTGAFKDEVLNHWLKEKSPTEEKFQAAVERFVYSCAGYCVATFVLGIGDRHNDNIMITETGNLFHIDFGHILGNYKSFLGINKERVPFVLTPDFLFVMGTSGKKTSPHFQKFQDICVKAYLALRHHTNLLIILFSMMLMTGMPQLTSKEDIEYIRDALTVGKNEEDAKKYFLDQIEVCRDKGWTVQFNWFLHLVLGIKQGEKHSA
# PROTOCOL_DESCRIPTION: PI 3-Kinase (human) HTRF assay, PI3K γ
# Assay type: biochemical
# STUDY_CONDITIONS: read-out: PI3K γ IC50
Listing of recorded IC50 by entry.

MOLECULE: CN1CCC(n2cnc3ccc(-c4cnc(Cl)c(NS(=O)(=O)c5ccccc5)c4)cc3c2=O)CC1
IC50: < 1 µM

MOLECULE: CN1CCC(NC(=O)c2cnc3ccc(-c4ccc5oc(N)nc5c4)cn23)CC1
IC50: < 1 µM

MOLECULE: CN1CCN(n2cnc3ccc(-c4ccc5oc(N)nc5c4)cc3c2=O)CC1 [Compound 446]
IC50: > 10 µM

MOLECULE: Nc1nc2cccc(-c3ccc4ncc(C(=O)N5CCOCC5)n4c3)c2s1
IC50: > 10 µM

Q) Fill in IC50 for record Nc1nc2cc(-c3ccc4ncc(N5CC(N6CCN(C7CC7)CC6)C5)nc4c3)ccc2o1
A) < 10 µM

Q) State its IC50 for this molecule: CN1CCN(C(=O)C2CN(c3cnc4ccc(-c5ccc6oc(N)nc6c5)cc4n3)C2)CC1 [Compound 170]
A) < 10 µM

Q) Query IC50 for C[C@@H]1CN(C2CN(C(=O)c3cnc4ccc(-c5ccc6oc(N)nc6c5)cn34)C2)CCN1C
A) < 10 µM

Q) Item Nc1nc2cc(-c3ccn4ncc(C(=O)N5CCC(N6CCOCC6)CC5)c4c3)ccc2o1 : provide IC50
A) < 10 µM

====

# SYSTEM_TESTED: PI3K α (p110α/p85α) (Homo sapiens)
# Construct: purchased Upstate / Millipore Corporation
# Sequence (P42336 whole entry): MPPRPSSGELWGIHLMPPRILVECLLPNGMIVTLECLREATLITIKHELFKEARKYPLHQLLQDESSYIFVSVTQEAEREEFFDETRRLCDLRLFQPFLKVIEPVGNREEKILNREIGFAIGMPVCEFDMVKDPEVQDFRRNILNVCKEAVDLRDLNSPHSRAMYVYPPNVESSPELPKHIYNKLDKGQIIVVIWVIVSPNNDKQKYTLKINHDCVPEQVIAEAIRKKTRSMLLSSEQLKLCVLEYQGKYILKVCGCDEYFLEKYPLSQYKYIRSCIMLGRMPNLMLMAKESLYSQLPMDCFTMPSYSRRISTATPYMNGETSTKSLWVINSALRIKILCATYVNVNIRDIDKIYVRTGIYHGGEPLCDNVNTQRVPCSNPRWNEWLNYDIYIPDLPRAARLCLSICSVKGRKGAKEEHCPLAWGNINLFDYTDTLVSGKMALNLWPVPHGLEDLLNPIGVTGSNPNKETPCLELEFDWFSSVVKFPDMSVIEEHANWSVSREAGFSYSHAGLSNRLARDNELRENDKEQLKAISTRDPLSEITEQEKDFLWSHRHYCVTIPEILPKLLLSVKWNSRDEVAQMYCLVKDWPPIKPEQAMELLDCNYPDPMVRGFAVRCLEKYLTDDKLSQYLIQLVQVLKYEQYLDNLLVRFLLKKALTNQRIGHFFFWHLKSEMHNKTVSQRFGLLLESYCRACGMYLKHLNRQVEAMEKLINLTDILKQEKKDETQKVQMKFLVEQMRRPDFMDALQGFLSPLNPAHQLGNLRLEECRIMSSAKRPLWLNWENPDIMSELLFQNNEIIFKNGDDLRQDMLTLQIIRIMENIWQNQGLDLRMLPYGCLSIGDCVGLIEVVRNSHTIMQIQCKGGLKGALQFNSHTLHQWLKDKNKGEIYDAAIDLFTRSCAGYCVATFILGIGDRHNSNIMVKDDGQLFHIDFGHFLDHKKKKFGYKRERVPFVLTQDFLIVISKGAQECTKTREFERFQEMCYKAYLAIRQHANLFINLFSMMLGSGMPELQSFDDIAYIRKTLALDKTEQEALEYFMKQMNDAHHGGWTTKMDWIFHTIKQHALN
# Sequence (P27986 whole entry partner): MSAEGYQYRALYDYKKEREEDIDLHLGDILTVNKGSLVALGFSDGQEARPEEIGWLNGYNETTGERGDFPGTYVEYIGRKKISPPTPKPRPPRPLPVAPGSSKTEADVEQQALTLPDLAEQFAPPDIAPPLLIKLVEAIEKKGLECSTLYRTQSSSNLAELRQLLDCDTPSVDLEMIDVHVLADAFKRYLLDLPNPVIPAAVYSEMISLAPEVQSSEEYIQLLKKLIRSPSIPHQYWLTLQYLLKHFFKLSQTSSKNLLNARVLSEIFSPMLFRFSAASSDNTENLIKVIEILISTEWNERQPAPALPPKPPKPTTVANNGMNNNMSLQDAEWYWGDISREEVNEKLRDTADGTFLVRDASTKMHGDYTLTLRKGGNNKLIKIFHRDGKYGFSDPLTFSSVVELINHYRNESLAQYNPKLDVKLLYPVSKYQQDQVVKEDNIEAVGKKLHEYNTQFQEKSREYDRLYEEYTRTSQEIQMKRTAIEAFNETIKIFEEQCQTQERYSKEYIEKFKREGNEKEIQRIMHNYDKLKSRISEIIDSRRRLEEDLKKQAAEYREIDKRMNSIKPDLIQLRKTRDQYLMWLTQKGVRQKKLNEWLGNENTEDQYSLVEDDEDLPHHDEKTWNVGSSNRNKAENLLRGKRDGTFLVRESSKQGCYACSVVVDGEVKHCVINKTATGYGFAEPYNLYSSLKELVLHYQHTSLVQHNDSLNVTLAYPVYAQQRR
# PROTOCOL_DESCRIPTION: PI 3-Kinase (human) HTRF assay, PI3K α
# Assay type: biochemical
# STUDY_CONDITIONS: read-out: PI3K α IC50
PROPERTY_NAME: IC50

Please review the following examples before continuing.
ENTRY_SMILES: Nc1nc2cc(-c3ccc4ncc(C(=O)N5CCC(N6CCOCC6)CC5)n4c3)ccc2o1
SYSTEM_TESTED: PI3K α (p110α/p85α) (Homo sapiens)
IC50: < 1 µM
--
ENTRY_SMILES: O=C(c1cnc2ccc(-c3ccc4oc(Nc5ccccc5)nc4c3)cn12)N1CCOCC1
SYSTEM_TESTED: PI3K α (p110α/p85α) (Homo sapiens)
IC50: > 10 µM
--
ENTRY_SMILES: CO[C@H]1CCN(C(=O)c2cnc3ccc(-c4ccc5oc(N)nc5c4)cn23)C1
SYSTEM_TESTED: PI3K α (p110α/p85α) (Homo sapiens)
IC50: < 0.1 µM

Here is the next item to consider.
Q) Identify IC50 associated with the compound Nc1nc2cc(-c3ccc4c(N)n[nH]c4c3)ccc2o1
A) < 10 µM

====

# SYSTEM_TESTED: PI3K δ (Homo sapiens)
# Construct: purchased Upstate / Millipore Corporation
# Sequence (O00329 whole entry): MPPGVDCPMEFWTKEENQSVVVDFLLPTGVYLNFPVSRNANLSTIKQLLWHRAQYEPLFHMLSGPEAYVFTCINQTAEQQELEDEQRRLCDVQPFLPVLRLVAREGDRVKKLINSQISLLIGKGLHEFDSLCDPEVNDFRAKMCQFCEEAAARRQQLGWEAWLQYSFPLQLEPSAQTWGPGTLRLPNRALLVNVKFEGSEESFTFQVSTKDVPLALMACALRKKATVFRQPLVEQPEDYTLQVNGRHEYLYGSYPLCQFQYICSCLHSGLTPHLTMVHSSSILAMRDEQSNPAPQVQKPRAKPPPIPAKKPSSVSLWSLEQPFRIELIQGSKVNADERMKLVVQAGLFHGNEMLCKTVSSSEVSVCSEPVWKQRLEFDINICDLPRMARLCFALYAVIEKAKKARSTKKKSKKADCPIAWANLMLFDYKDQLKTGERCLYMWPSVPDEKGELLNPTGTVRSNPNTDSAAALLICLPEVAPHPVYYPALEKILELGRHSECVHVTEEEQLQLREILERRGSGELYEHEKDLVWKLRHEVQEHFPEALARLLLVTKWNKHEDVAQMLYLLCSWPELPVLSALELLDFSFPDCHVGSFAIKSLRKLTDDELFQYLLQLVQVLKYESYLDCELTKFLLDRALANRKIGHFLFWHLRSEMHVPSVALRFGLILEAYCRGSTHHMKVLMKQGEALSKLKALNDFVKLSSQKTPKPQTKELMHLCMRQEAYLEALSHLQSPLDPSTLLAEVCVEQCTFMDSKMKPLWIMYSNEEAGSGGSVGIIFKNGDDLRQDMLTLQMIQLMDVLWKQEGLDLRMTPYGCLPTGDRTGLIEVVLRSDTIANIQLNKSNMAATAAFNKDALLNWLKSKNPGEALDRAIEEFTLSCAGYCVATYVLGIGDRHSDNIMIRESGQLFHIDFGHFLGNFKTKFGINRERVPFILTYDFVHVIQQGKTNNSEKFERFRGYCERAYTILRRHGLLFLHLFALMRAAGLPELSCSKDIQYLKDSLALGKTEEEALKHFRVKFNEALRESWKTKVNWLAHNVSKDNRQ
# Sequence (P27986 whole entry partner): as the sequence (P27986 whole entry partner) above
# PROTOCOL_DESCRIPTION: PI 3-Kinase (human) HTRF assay, PI3K δ
# Type: biochemical
# STUDY_CONDITIONS: read-out: PI3K δ IC50
pIC50: −log10 of the molar value.
PROPERTY_NAME: pIC50

For orientation, consider the following solved cases.
ENTRY_SMILES: Nc1nc2cc(-c3ccc4ncc(N5CC(N6CCOCC6)C5)nc4c3)c(Cl)cc2o1
RECORDED_VALUE: < 5.00

ENTRY_SMILES: CN1CCN(C(=O)c2cnc3ccc(-c4ccc5nc(N)oc5c4)cn23)CC1
RECORDED_VALUE: < 5.00

ENTRY_SMILES: Cc1cc(-c2ccc3oc(N)nc3c2)cc2c(C(=O)N3CCOCC3)cnn12
RECORDED_VALUE: > 5.00

ENTRY_SMILES: Nc1cn2cc(-c3ccc4oc(N)nc4c3)ccc2n1
RECORDED_VALUE: < 5.00

ENTRY_SMILES: CS(=O)(=O)N1CCN(Cc2cc3nc(-c4ccc5oc(N)nc5c4)nc(N4CCOCC4)c3s2)CC1
RECORDED_VALUE: > 6.00

Q) Report pIC50 for Nc1nc2cc(-c3ccc4ncc(C(=O)N5CC(n6cccn6)C5)n4c3)ccc2o1
A) > 5.00

Q) Specify measured pIC50 for CCN(CC)CC(=O)N1CCN(c2cnc3ccc(-c4ccc5oc(N)nc5c4)cc3n2)CC1 .
A) > 5.00
